// provenance: patent US20250206828A1

# Target or test system: human adenosine A2A receptor (A2aR) (human, UniProt P29274 1-412)
# Sequence (P29274 whole entry): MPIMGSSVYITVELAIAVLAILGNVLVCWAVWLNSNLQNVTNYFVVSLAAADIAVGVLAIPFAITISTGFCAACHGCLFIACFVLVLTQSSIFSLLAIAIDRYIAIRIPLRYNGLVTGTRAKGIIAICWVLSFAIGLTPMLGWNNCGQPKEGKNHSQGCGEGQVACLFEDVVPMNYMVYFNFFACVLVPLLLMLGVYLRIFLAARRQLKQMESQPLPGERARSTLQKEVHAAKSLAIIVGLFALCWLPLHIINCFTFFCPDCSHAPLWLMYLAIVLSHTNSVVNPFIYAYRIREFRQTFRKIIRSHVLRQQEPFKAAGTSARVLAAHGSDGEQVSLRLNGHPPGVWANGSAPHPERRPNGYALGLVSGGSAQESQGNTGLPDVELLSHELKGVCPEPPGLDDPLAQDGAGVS
# Test details: cell-based or functional assay
Observation type: IC50 of blocking activity, cAMP-Glo, 300 nM NECA, HEK293-hA2aR cells, supernatant (nM)

1. Hu3F6-H3/Hu3F6-L3 (antibody, human IgG1, V domains shown, Human IgG1 FES (L234F, L235E, P331S) and human Ig kappa constant domains; also called Hu3F6 VH3/VL3) VH: EVQLVQSGAEVKKPGASVKVSCKTSGFAFTSYWMNWVRQAPGQGLEWIGRIDPSDSEAHYHHKFWGRATLTVDTSSSTVYMELSSLRSEDTAVYYCLRSLYGKGDYWGHGTTVTVSS VL: DVVMTQSPLSLPVTLGQPASISCRSSQSLVHRNGNTYLEWYQQRPGQSPRLLIYKVSNRFSGVPDRFSGSGSGTDFTLKISRVEAEDVGVYYCYQGSHVPLTFGGGTKVEIK; 2
2. Hu3F6-H5/Hu3F6-L5 (antibody, human IgG1, V domains shown, Human IgG1 FES (L234F, L235E, P331S) and human Ig kappa constant domains; also called Hu3F6 VH5/VL5; Hu3F6-VH5/VL5) VH: EVQLVQSGAEVKKPGASVKVSCKTSGFAFTSYWMNWVRQAPGQGLEWIGRIDPSDSEAHYAHKFWGRATLTVDKSSSTVYMELSSLRSEDTAVYYCLRSLYGKGDYWGHGTTVTVSS VL: DVVMTQTPLSLSVTPGQPASISCRSSQSLVHRNGNTYLEWYLQKPGQSPQLLIYKVSNRFSGVPDRFSGSGSGTDFTLKISRVEAEDVGVYYCYQGSHVPLTFGGGTKVEIK; 0.9
3. Hu3F6-H5/Hu3F6-L8 (antibody, human IgG1, V domains shown, Human IgG1 FES (L234F, L235E, P331S) and human Ig kappa constant domains; also called Hu3F6 VH5/VL8) VH: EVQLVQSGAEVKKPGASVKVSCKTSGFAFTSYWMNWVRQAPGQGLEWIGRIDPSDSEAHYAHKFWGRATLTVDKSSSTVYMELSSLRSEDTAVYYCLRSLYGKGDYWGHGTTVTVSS VL: DVVMTQSPLSLPVTPGEPASISCRSSQSLVHRNGNTYLEWYLQKPGQSPQLLIYKVSNRFSGVPDRFSGSGSGTDFTLKISRVEAEDVGVYYCYQGSHVPLTFGGGTKVEIK; 1.1
4. Hu3F6-H3/Hu3F6-L4 (antibody, human IgG1, V domains shown, Human IgG1 FES (L234F, L235E, P331S) and human Ig kappa constant domains; also called Hu3F6 VH3/VL4) VH: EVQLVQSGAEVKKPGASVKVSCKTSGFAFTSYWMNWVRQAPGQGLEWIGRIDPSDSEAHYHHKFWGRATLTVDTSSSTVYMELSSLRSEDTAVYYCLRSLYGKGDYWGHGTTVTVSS VL: DIVMTQTPLSLSVTPGQPASISCRSSQSLVHRNGNTYLEWYLQKPGQSPQLLIYKVSNRFSGVPDRFSGSGSGTDFTLKISRVEAEDVGVYYCYQGSHVPLTFGGGTKVEIK; 19.5
